target_or_system: human CLDN6 fused to GFP, expressed on engineered HEK293T cells (human) (UniProt P56747)
experimental_details: KinExA 4000, cell-based equilibrium titration; Cell Model HEK293T CLDN6-mGFP A11, Cells Detached by Versene; Equilibrium Curves 500pM, 10nM
Provide the reported pKd of each item.
# pKd: negative log10 of molar concentration; output just the value

// AB3-7 (antibody, V domains shown) VH: EVQLLESGGGLVQPGGSMRLSCAASGFTFSNYWMNWVRQAPGKGLEWVAQIRLKSDNYATHYADSVKGRFTISRDDSKNTVYLQMNSLRAEDTGVYYCNDGPPSGSWGQGTLLTVSS VL: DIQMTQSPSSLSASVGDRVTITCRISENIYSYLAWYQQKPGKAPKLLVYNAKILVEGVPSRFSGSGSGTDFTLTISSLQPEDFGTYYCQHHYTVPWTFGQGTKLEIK : pKd value = 8.95

// AB3-7 conjugated to MC-GGFG-MMAE (D4 technology) (antibody, V domains shown, MC-GGFG-MMAE conjugated to the antibody (D4); sites not stated) VH: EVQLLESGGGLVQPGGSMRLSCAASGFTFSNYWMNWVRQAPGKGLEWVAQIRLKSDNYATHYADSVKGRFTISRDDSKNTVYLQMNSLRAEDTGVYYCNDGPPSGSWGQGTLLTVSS VL: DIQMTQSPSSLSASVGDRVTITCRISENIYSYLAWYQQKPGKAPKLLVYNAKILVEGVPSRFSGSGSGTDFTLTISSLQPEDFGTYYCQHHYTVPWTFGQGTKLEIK : pKd value = 9.00

// AB3-7 conjugated to MC-VC-PAB-MMAE (conventional) (antibody, V domains shown, MC-VC-PAB-MMAE conjugated to the antibody, heterogeneous (conventional); sites not stated) VH: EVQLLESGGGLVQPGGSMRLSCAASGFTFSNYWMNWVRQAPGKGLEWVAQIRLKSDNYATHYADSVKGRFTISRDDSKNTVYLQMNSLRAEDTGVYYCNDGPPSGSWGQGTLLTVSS VL: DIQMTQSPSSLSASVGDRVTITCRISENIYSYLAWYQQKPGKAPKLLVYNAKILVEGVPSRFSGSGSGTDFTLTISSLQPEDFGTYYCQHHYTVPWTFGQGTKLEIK : pKd value = 8.18

// AB3-7 conjugated to CL2A-SN38 (D4 technology) (antibody, V domains shown, CL2A-SN38 conjugated to the antibody (D4); sites not stated) VH: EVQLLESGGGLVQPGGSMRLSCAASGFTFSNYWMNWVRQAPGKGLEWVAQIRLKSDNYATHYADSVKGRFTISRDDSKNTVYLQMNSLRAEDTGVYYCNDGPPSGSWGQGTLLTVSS VL: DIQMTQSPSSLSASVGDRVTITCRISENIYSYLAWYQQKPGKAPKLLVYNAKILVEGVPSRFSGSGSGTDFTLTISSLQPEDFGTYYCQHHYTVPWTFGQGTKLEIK : pKd value = 8.54

// AB3-7 conjugated to MC-GGFG-DXD (antibody, V domains shown, MC-GGFG-DXD conjugated to the antibody; sites not stated) VH: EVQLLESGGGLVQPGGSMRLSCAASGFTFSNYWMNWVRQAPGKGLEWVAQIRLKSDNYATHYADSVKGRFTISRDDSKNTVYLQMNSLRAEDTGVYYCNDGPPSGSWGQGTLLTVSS VL: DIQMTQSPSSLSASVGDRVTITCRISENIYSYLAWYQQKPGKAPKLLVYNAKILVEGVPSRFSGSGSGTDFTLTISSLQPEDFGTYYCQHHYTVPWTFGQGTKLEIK : pKd value = 8.52

// AB3-7 conjugated to CL2A-SN38 (conventional) (antibody, V domains shown, CL2A-SN38 conjugated to the antibody, heterogeneous (conventional); sites not stated) VH: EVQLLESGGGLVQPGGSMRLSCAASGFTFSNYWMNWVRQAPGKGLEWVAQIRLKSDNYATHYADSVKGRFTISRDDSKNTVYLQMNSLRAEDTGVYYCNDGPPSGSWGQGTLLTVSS VL: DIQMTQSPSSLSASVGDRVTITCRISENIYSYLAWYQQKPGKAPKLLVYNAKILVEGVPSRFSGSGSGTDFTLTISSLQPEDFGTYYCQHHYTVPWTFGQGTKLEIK : pKd value = 8.72
